# Method notes: Colistin plasma pharmacokinetics at steady state in critically ill patients undergoing CRRT (CVVHDF)
# Format: in vivo, human
# Particulars: human, plasma; colistin, 20 patients on CVVHDF; after a single 6.75 MIU IV CMS dose at steady state; median [IQR]
Readout name: Vd
Please make sure the unit comes right after the number.

Kindly note the recorded Vd for CC[C@H](C)CCCCC(=O)N[C@@H](CCN)C(=O)N[C@H](C(=O)N[C@@H](CCN)C(=O)N[C@H]1CCNC(=O)[C@H]([C@@H](C)O)NC(=O)[C@H](CCN)NC(=O)[C@H](CCN)NC(=O)[C@H](CC(C)C)NC(=O)[C@@H](CC(C)C)NC(=O)[C@H](CCN)NC1=O)[C@@H](C)O (mixture of isomers) , which is 126 L

* * *

# Method notes: Colistin plasma pharmacokinetics at steady state in critically ill patients undergoing CRRT (CVVHDF)
# Type: in vivo, human
# Particulars: human; plasma colistin, 20 critically ill anuric patients on CVVHDF (AN69 ST, 32.5 mL/kg/h); IV CMS 9 MIU LD then 6.75 MIU q12; after seventh dose (day 4, steady state); observed peak; modified Gobin assay; median [IQR]
Readout name: Cmax (µg/mL)
Please give a number only; it is taken to be in µg/mL.

Kindly note the recorded Cmax for CC[C@H](C)CCCCC(=O)N[C@@H](CCN)C(=O)N[C@H](C(=O)N[C@@H](CCN)C(=O)N[C@H]1CCNC(=O)[C@H]([C@@H](C)O)NC(=O)[C@H](CCN)NC(=O)[C@H](CCN)NC(=O)[C@H](CC(C)C)NC(=O)[C@@H](CC(C)C)NC(=O)[C@H](CCN)NC1=O)[C@@H](C)O (mixture of isomers) , which is 16.6

* * *

# Method notes: Colistin plasma pharmacokinetics at steady state in critically ill patients undergoing CRRT (CVVHDF)
# Type: in vivo, human
# Particulars: human, plasma; colistin, 20 patients on CVVHDF; after a single 6.75 MIU IV CMS dose at steady state; one-compartment, first order; median [IQR]
Readout name: half-life (h)
Please give a number only; it is taken to be in h.

Kindly note the recorded half-life for CC[C@H](C)CCCCC(=O)N[C@@H](CCN)C(=O)N[C@H](C(=O)N[C@@H](CCN)C(=O)N[C@H]1CCNC(=O)[C@H]([C@@H](C)O)NC(=O)[C@H](CCN)NC(=O)[C@H](CCN)NC(=O)[C@H](CC(C)C)NC(=O)[C@@H](CC(C)C)NC(=O)[C@H](CCN)NC1=O)[C@@H](C)O (mixture of isomers) , which is 20.9

* * *

# Method notes: Colistin plasma pharmacokinetics at steady state in critically ill patients undergoing CRRT (CVVHDF)
# Type: in vivo, human
# Particulars: human; plasma colistin, 20 patients on CVVHDF; IV CMS 9 MIU LD then 6.75 MIU q12; after seventh dose (day 4); observed trough; median [IQR]; read-out: Cmin
Readout name: level at 96 h (ng/mL)
Please give a number only; it is taken to be in ng/mL.

Kindly note the recorded level at 96 h for CC[C@H](C)CCCCC(=O)N[C@@H](CCN)C(=O)N[C@H](C(=O)N[C@@H](CCN)C(=O)N[C@H]1CCNC(=O)[C@H]([C@@H](C)O)NC(=O)[C@H](CCN)NC(=O)[C@H](CCN)NC(=O)[C@H](CC(C)C)NC(=O)[C@@H](CC(C)C)NC(=O)[C@H](CCN)NC1=O)[C@@H](C)O (mixture of isomers) , which is 3930

Data origin, for the record: paper PMC11438743
